Experiment: Lipophilicity, log D at pH 7.4 by shake flask method
Assay type: physicochemical
Conditions: buffer
Hi there, I'd appreciate the recorded logD for every entry that follows.
Give only the figure.

QUERY: Return logD (reported value) for this compound: CCN1CCC[C@H]1CNC(=O)c1cc(Br)cc(OC)c1O[11CH3]
RESULT: 1.33

QUERY: Return logD (reported value) for this compound: COc1cc(Br)cc(C(=O)NC[C@@H]2CCCN2CC2CC2)c1O[11CH3]
RESULT: 1.82

---

Biological target: D(2) dopamine receptor (Homo sapiens, UniProt P14416)
Sequence (P14416 whole entry): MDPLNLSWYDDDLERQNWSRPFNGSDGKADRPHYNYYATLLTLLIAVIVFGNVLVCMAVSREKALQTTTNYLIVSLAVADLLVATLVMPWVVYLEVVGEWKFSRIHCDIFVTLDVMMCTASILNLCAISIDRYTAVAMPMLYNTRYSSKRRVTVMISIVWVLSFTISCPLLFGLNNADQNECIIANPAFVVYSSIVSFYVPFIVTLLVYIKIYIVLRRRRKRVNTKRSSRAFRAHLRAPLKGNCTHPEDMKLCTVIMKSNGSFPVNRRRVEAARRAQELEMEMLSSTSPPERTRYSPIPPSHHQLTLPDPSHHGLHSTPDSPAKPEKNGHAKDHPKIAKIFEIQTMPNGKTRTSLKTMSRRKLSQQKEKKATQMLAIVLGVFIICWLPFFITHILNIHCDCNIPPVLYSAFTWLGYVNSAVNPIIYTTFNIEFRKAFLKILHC
Assay: Binding affinity to dopamine D2 receptor
metric: pKi
In plain terms, pKi is the concentration in mol/L turned into minus its base-10 logarithm.

QUERY: Return pKi (reported value) for this compound: CCN1CCC[C@H]1CNC(=O)c1cc(Br)cc(OC)c1OC
RESULT: 11.52

---

Assay: Protein binding in cynomolgus monkey plasma at 10 MBq in presence of raclopride
Assay type: ADME, cell-free, Macaca fascicularis
Settings: read-out: PPB (converted)
metric: fraction unbound at 10 MBq
Give only the figure.

QUERY: Return fraction unbound at 10 MBq (reported value) for this compound: COc1cc(Br)cc(C(=O)NC[C@@H]2CCCN2CC2CC2)c1O[11CH3]
RESULT: 0.64

---

Test: Metabolic stability in cynomolgus monkey plasma after 45 mins
Format: ADME, cell-free, Macaca fascicularis
Settings: read-out: Stability
metric: remaining at 0.75 h

QUERY: Return remaining at 0.75 h (reported value) for this compound: COc1cc(Br)cc(C(=O)NC[C@@H]2CCCN2CC2CC2)c1O[11CH3]
RESULT: 60%

---

Test: Protein binding in cynomolgus monkey plasma at 10 MBq
Format: ADME, cell-free, Macaca fascicularis
Details: read-out: PPB (converted)
metric: fraction unbound at 10 MBq
Give only the figure.

QUERY: Return fraction unbound at 10 MBq (reported value) for this compound: COc1cc(Br)cc(C(=O)NC[C@@H]2CCCN2CC2CC2)c1O[11CH3]
RESULT: 0.68
